// data source = paper PMC12118597

# assaySystem: SARS-CoV-2 NSP3 macrodomain (Mac1) (Severe acute respiratory syndrome coronavirus 2, UniProt P0DTD1)
# Format: binding
# experimentalSetup: crystallographic refinement
quantityName: Refined ligand occupancy (%)
# unit: % | format: bare number

Worked cases, Refined ligand occupancy (%) given:
compound	Refined ligand occupancy (%)
O=C(O)C(F)(F)F.OC[C@H](Cc1ccc(O)cc1)Nc1ncnc2[nH]ccc12 [AVI-4066]	50
CN(CC1(O)CCOCC1)c1ncnc2[nH]ccc12 [AVI-4318]	50
OC1(CNc2ncnc3[nH]ccc23)CCCCC1 [AVI-6217]	60
CC(C)(O)C1N(c2ncnc3[nH]ccc23)CCC1(C)C (stereo not drawn) [AVI-4126]	40
OC1(CNc2ncnc3[nH]ccc23)CCC(F)(F)CC1 [AVI-4308]	30

Then this compound:
Which Refined ligand occupancy (%) is listed for CC1CCC(O)(CNc2ncnc3[nH]ccc23)CC1 (stereo not drawn) [AVI-4312] ?
44

###

# assaySystem: SARS-CoV-2 NSP3 macrodomain (Mac1) (Severe acute respiratory syndrome coronavirus 2)
# Format: binding
# experimentalSetup: crystal soak 10 mM; DMSO background map
Each entry below carries its recorded PanDDA run, DMSO background map: 1-BDC.

Worked cases, PanDDA run, DMSO background map: 1-BDC given:
compound	quantityName	measuredValue
O=C(O)C(F)(F)F.OCC1(Nc2ncnc3[nH]ccc23)CC1 [AVI-3688]	PanDDA run, DMSO background map: 1-BDC	0.2
OCC1CC2(CCOCC2)CN1c1ncnc2[nH]ccc12 (centres unmarked) [AVI-3707]	PanDDA run, DMSO background map: 1-BDC	0.21
OCC1CC2(CCC2)CN1c1ncnc2[nH]ccc12 (centres unmarked) [AVI-3728]	PanDDA run, DMSO background map: 1-BDC	0.24

Then this compound:
Which PanDDA run, DMSO background map: 1-BDC is listed for CC(C)(C)C1CCC(CO)N(c2ncnc3[nH]ccc23)C1 (centres unmarked) [AVI-3719] ?
0.08

###

# assaySystem: SARS-CoV-2 NSP3 macrodomain (Mac1) (Severe acute respiratory syndrome coronavirus 2)
# Type: binding
# experimentalSetup: crystal soak 10 mM; DMSO background map
quantityName: PanDDA run, DMSO background map: 1-BDC
When you answer, write just the number.

Worked cases, PanDDA run, DMSO background map: 1-BDC given:
compound	quantityName	measuredValue
CC1(C)C[C@@H](CO)N(c2ncnc3[nH]ccc23)C1.O=C(O)C(F)(F)F [AVI-3704]	PanDDA run, DMSO background map: 1-BDC	0.33
CCC(O)[C@H]1CCCN1c1ncnc2[nH]ccc12 (stereo partly shown) [AVI-3666]	PanDDA run, DMSO background map: 1-BDC	0.3
Cc1ccccc1CC(CO)Nc1ncnc2[nH]ccc12 (stereo not shown) [AVI-3674]	PanDDA run, DMSO background map: 1-BDC	0.19

Then this compound:
Which PanDDA run, DMSO background map: 1-BDC is listed for OCC(CC1CCCCC1)Nc1ncnc2[nH]ccc12 (stereo not shown) [AVI-3690] ?
0.12
